optical density reference
target: human Fc (human); assay: ELISA; negative control
// return numeric value only (unit: OD, not printed)

Input: Indicate the recorded optical density value for this binder: 374_D12 (antibody, V domains shown) VH: EVQLLESGGGLVQPGGSLRLSCAASGFTFDSYSMNWVRQAPGKGLEWVSGINYNGGYTGYADSVKGRFTISRDNSKNTLYLQMNSLRAEDTAVYYCARSATWHDTHLDYWGQGTLVTVSS VL: DIQMTQSPSSLSASVGDRVTITCRASQSIVSYVNWYQQKPGKAPKLVIYAATSRASGVPSRFSGSGSGTDFTLTISSLQPEDFATYYCQQSYDLPLTFGGGTKVEIK
Output: 0.235

Input: Indicate the recorded optical density value for this binder: 368_E11 (antibody, V domains shown) VH: EVQLLESGGGLVQPGGSLRLSCAASGFTFDSYGMHWVRQAPGKGLEWVANINYNGGYTSYADSVKGRFTISRDNSKNTLYLQMNSLRAEDTAVYYCARSATWHDTHLDYWGQGTLVTVSS VL: DIQMTQSPSSLSASVGDRVTITCRASQSIISYVNWYQQKPGKAPKLLIYAATSRHSGVPSRFSGSGSGTDFTLTISSLQPEDFATYYCQQSYELPLTFGGGTKVEIK
Output: 0.341
